Values from patent US20230117470A1

# measuredOn: human TLR8 (Homo sapiens, UniProt Q9NR97)
# Sequence (Q9NR97 27-1041): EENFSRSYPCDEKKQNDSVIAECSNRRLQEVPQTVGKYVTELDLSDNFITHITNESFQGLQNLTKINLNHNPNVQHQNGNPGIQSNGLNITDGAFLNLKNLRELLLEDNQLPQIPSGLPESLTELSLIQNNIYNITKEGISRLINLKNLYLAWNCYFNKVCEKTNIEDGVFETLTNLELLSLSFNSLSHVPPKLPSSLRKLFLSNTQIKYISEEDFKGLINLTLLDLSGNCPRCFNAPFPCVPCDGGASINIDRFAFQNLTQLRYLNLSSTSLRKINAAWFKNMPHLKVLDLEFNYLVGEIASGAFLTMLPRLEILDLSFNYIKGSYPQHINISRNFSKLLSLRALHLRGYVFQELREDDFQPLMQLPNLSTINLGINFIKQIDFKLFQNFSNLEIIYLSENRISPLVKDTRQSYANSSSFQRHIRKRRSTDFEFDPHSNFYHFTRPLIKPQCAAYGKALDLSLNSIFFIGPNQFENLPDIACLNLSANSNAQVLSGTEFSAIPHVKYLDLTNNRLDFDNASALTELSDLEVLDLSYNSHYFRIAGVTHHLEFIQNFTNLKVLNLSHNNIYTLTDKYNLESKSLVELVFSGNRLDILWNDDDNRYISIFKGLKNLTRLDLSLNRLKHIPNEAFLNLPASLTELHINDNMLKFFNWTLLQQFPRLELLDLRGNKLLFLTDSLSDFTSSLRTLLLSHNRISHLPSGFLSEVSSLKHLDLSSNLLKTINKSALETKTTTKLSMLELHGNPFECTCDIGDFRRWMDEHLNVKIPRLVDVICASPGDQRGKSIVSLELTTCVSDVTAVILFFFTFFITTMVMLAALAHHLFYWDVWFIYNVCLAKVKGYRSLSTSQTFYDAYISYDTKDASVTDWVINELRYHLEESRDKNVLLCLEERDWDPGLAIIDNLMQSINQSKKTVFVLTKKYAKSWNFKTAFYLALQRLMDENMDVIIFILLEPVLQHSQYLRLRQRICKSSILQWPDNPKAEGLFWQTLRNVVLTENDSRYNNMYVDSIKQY
# assayComment: TLR8 inhibition reporter assay (HEK-Blue cells, SEAP reporter, R848 stimulation)
# details: HEK-Blue cells overexpressing human TLR8, SEAP reporter, R848 15.9 μM
pIC50: −log10 of the molar value.
parameter: pIC50

Returns the measured pIC50 for the input compound. Input: Cc1cc(-c2[nH]nc(C(=O)NC3CCN(CC4CCOC4)CC3)c2C(C)C)cn2ncnc12 (stereo not drawn) 8.32

(P) Cc1cc(-c2[nH]nc(-c3cc4n(n3)CCNC4)c2C(C)C)cn2ncnc12
(Q) CNC(=O)CN1CCc2cc(-c3n[nH]c(-c4cc(C)c5ncnn5c4)c3C(C)C)ccc2C1
// returns P or Q , whichever has the lower pIC50 # respond with the chosen item's label Q

====

# measuredOn: human TLR9 (Homo sapiens, UniProt Q9NR96)
# Sequence (Q9NR96 26-1032): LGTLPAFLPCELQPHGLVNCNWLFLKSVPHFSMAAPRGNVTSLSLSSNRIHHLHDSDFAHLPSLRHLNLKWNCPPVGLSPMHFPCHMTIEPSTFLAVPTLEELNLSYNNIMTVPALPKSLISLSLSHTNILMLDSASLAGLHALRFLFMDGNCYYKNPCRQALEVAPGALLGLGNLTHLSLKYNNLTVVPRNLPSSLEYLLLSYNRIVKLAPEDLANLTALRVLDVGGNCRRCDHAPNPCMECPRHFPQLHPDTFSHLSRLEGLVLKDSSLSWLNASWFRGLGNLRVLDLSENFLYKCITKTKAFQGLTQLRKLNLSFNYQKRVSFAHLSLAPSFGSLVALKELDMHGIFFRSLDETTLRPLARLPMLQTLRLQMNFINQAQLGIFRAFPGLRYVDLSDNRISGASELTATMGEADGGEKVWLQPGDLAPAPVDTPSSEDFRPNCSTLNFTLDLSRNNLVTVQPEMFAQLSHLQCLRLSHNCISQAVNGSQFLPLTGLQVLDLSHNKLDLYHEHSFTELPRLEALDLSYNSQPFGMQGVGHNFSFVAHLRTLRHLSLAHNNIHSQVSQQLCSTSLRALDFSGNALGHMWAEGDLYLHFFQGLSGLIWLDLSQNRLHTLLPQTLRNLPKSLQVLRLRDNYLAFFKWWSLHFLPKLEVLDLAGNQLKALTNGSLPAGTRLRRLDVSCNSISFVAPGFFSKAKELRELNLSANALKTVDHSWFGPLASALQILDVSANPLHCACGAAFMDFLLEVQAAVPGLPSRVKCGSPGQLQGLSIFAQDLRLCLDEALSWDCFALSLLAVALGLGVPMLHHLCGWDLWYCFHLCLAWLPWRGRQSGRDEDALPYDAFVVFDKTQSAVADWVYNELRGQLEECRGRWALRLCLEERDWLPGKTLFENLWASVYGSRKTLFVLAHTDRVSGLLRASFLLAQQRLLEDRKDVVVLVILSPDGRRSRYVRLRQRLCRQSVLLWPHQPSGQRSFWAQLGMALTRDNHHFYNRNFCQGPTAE
# assayComment: TLR9 inhibition reporter assay (HEK-Blue cells, SEAP reporter, ODN2006 stimulation)
# details: HEK-Blue cells overexpressing human TLR9, SEAP reporter, ODN2006 5 nM
parameter: IC50 (µM)

Name the recorded IC50 for COc1cc(-c2[nH]nc(-c3cnc(C4CCN(C5CCOCC5)CC4)cn3)c2C(C)C)cn2ncnc12 [Example 380] . 6.52

Bench note: what IC50 did Cc1cc(-c2c(C(C)C)c(C(=O)NC3CCN(CC(F)(F)F)CC3)nn2CC(F)(F)F)cn2ncnc12 [Example 175] show? 6.25

Fill in the blank: the reported IC50 of CC(C)c1c(C(=O)NC2CCN(C(C)C)CC2)n[nH]c1-c1ccc(C#N)c2ncccc12 [Example 40] is ____. 18.9

Fill in: IC50 of Cc1cc(-c2[nH]nc(-c3ncc4c(n3)CCN(C)C4)c2C(C)C)cn2ncnc12 [Example 248] is ___ 14

Dear colleague, I am looking for the recorded IC50 of the following compound: Cc1cc(-c2[nH]nc(C3CCC(N4CCN(C)CC4)CC3)c2C(C)C)cn2ncnc12 (single isomer, unassigned) [Example 287] 29.2

(1) Cc1cc(-c2[nH]nc(C(=O)NC3CCN(C)CC3)c2C(C)C)cn2ncnc12 [Example 8]
(2) Cc1cc(-c2[nH]nc(C(=O)NC3CCN(C(C)C)CC3)c2C(C)C)ccn1 [Example 38]
(3) Cc1cc(-c2[nH]nc(C(=O)NC3CCN(CCC(F)(F)F)CC3)c2C(C)C)cn2ncnc12 [Example 69]
(4) COc1ncc(CN2CCC(NC(=O)c3n[nH]c(-c4cc(C)c5ncnn5c4)c3C(C)C)CC2)cn1 [Example 157]
(5) Cc1cc(-c2[nH]nc(C(=O)NC3CCN(C(=O)OC(C)(C)C)CC3)c2C(C)C)cn2ncnc12 [Example 1]
Could you please order the items by IC50, going from the lowest number to the highest? Give the order by naming the labels one after another as requested. 5, 2, 3, 4, 1
(5: 0.76 µM, 2: 2.28 µM, 3: 6.32 µM, 4: 16.4 µM, 1: 30.9 µM)

====

# measuredOn: human TLR8 (Homo sapiens, UniProt Q9NR97)
# assayComment: TLR8 inhibition reporter assay (HEK-Blue cells, SEAP reporter, R848 stimulation)
# details: HEK-Blue cells overexpressing human TLR8, SEAP reporter, R848 15.9 μM
pIC50: −log10 of the molar value.
parameter: pIC50

Reference set, count: 3
Can you share its pIC50? I mean this molecule: CCC(CC)N[C@H]1CC[C@@H](NC(=O)c2n[nH]c(-c3cc(C)c4ncnn4c3)c2C(C)C)CC1 6.94

Please look up its pIC50: COc1ncc(CN[C@H]2CC[C@H](NC(=O)c3n[nH]c(-c4cc(C)c5ncnn5c4)c3C(C)C)CC2)cn1 8.85

What value of pIC50 has been recorded for this entry: COc1cc(-c2[nH]nc(C(=O)NC3CCN(C(C)C)CC3)c2C(C)C)cn2ncnc12 9.07

(a) Cc1cc(-c2[nH]nc(C(=O)NC3CCN(CCN(C)C)CC3)c2C(C)C)cn2ncnc12
(b) Cc1cc(-c2[nH]nc(C(=O)N3CC4CNCC4C3)c2C(C)C)cn2ncnc12 (stereo not shown)
(c) Cc1cc(-c2[nH]nc(C(=O)NC3CN(CC4(C)COC4)C3)c2C(C)C)cn2ncnc12
(d) COc1cc(-c2[nH]nc(-c3ccc(C4CCN(C)CC4)cc3)c2C(C)C)cn2ncnc12
Your job: order these 4 records by pIC50, ascending. Respond with an ordered listing of the labels, as requested. a, b, d, c
(a: 6.62, b: 7.33, d: 7.73, c: 8.48)

(1) Cc1cc(-c2[nH]nc(C(=O)NC3CN(Cc4ncn(C)n4)C3)c2C(C)C)cn2ncnc12
(2) Cc1cc(-c2[nH]nc(-c3ccc(N4CCN(CC(C)(C)C)CC4)cc3)c2C(C)C)cn2ncnc12
Out of 1 and 2 , name the one with the higher pIC50. # answer = label of selected item 1

(1) Cc1cc(-c2[nH]nc(C(=O)N3CCN(c4ccncc4)CC3)c2C(C)C)cn2ncnc12
(2) Cc1cc(-c2[nH]nc(C(=O)N3CC[C@@H](N(C)C)C3)c2C(C)C)cn2ncnc12
(3) Cc1cc(-c2[nH]nc(C(=O)N[C@H]3CC[C@@H](NCc4cccnc4)CC3)c2C(C)C)cn2ncnc12
Highest pIC50 first, then in falling order down to the smallest. The response must list the labels following the requested ordering. 1, 2, 3
(1: 9.03, 2: 8.59, 3: 7.62)

(I) COc1cc(-c2[nH]nc(-c3cnc(C4CCN(CCCF)CC4)cn3)c2C(C)C)cn2ncnc12
(II) Cc1cc(-c2[nH]nc(C(=O)NCC3CNC3)c2C(C)C)cn2ncnc12
(III) COc1c(C)c(-c2[nH]nc(-c3ccc(C4CCN(CC5CCOCC5)CC4)cn3)c2C(C)C)cn2ncnc12
Order each entry by recorded pIC50, climbing from the minimum. Labels, requested order. I, III, II
